Hey, just so you know, these numbers are from patent US8952034B2.

# measurement.target: UniProt Q14524
# test.name: Late INa screening assay (automated whole cell patch clamp, PatchXpress)
# Assay type: cell-based
# applied.conditions: compound at 1 μM; HEK293 cells expressing hNav1.5; late INa generated with 10 μM Tefluthrin (or 50 nM ATX II); read-out: LateINa_1 uM (percent block of late INa)
property.name: inhibition at 1 µM (%)
Answers are plain numbers, in %.

COCc1c(-c2ccc(OC(F)(F)F)cc2)ccc2nnc(C(F)(F)F)n12 :: 38

Give measured inhibition at 1 µM for every item shown.
1. CC1(COC(F)(F)c2nnc3ccc(-c4ccc(OC(F)(F)F)cc4)cn23)COC1
2. CC(C)Oc1cc(OC(F)(F)F)ccc1-c1ccc2nnc(C(F)(F)F)n2c1
3. OCC(F)(F)c1nnc2ccc(C#Cc3ccc(C(F)(F)F)cc3)cn12
4. FC(F)(F)c1nnc2ccc(-c3cccc(Oc4ccccc4)c3)cn12

Result:
[38.8, 54.5, 17.4, 29.6]

* * *

# measurement.target: wild-type human cardiac sodium channel, hNav1.5 (Homo sapiens, UniProt Q14524)
# Sequence (Q14524 whole entry): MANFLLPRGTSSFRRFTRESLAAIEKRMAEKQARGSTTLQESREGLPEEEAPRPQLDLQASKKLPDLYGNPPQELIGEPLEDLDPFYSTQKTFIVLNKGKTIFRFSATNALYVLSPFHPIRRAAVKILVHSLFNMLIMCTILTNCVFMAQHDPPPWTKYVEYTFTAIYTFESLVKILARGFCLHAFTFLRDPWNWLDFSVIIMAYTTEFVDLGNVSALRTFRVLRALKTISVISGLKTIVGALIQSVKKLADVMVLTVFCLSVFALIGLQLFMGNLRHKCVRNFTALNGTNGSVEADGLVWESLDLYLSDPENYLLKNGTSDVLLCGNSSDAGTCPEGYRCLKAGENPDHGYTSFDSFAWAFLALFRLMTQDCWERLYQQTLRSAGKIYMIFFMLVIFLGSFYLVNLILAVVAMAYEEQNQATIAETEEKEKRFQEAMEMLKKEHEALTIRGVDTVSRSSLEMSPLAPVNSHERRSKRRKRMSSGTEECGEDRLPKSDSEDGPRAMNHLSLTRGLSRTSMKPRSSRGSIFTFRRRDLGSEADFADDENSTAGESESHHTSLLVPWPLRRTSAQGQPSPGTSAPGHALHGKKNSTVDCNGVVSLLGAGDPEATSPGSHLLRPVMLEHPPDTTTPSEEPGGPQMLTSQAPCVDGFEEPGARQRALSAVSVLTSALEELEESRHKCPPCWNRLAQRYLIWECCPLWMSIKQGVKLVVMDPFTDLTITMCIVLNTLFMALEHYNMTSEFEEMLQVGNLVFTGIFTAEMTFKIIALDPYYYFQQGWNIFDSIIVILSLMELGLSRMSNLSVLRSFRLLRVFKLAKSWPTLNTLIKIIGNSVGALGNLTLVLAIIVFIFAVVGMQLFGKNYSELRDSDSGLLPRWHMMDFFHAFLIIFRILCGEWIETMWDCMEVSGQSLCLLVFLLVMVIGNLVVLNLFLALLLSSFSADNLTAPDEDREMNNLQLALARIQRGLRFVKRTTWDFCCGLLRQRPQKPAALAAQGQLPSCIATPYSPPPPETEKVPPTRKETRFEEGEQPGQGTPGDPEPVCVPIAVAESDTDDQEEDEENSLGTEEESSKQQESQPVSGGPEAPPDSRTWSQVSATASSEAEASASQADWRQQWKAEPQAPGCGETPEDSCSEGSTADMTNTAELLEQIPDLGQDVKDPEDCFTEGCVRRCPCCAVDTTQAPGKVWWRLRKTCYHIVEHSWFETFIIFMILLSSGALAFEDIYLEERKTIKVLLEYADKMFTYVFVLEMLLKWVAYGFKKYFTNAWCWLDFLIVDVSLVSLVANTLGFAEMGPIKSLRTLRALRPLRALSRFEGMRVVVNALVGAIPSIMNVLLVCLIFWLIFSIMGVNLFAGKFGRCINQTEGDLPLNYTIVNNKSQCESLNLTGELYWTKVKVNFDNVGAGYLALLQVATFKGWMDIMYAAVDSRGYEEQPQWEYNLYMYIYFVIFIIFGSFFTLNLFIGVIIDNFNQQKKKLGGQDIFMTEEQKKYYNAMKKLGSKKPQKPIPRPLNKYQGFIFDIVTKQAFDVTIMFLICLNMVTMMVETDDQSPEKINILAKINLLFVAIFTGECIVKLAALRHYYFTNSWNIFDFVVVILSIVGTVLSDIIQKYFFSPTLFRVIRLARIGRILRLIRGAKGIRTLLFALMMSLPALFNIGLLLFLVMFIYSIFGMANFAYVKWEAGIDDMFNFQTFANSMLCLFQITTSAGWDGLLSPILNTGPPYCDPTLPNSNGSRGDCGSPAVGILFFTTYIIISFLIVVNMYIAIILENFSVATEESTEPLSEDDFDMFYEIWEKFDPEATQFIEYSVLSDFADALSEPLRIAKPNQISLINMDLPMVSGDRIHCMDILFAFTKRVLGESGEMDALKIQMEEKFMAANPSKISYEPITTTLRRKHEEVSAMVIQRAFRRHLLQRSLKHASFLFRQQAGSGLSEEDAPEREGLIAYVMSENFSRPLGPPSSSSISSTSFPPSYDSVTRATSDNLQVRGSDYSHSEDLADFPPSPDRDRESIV
# test.name: Late INa screening assay (automated whole cell patch clamp, PatchXpress)
# Assay type: cell-based
# applied.conditions: compound at 1 μM; HEK293 cells expressing hNav1.5; late INa generated with 10 μM Tefluthrin (or 50 nM ATX II); read-out: LateINa_1 uM (percent block of late INa)
property.name: inhibition at 1 µM (%)
Answers are plain numbers, in %.

These recorded examples may help you get a feel for the data.
FC(F)(F)c1ncc2ccc(-c3nc4ccccc4o3)cn12 [BHN-196] :: 26.8
FC(F)(F)c1ccc(-c2ccc3nnc(C(F)(F)F)n3c2)nn1 [BHN-121] :: 21.9
COCC(F)(F)c1nnc2ccc(-c3ccc(OC(F)(F)F)cc3C)cn12 [BHN-200] :: 40.8
FC(F)(F)Oc1ccc(-c2ccc3nnc(COCc4ccc(C(F)(F)F)cc4)n3c2)cc1 [BHN-226] :: 59.3
FC(F)(F)Oc1ccc(-c2ccc3nnc(C(F)(F)Cl)n3c2)cc1 [BHN-308] :: 71.2
COCC(F)(F)c1nnc2ccc(C#Cc3ccc(F)cc3)cn12 [BHN-310] :: 21.7
FC(F)(F)c1ncc2ccc(-c3ccccc3)cn12 [BHN-194] :: 22.2
FC(F)(F)COc1ccc(-c2ccc3nnnn3c2)cn1 [BHN-219] :: 36.9
C/C(=C\C#N)c1ccc(-c2ccc3nnc(C(F)(F)F)n3c2)cc1 [BHN-169] :: 30.5
COc1ccc(-c2ccc3cnc(C(F)(F)F)n3c2)cc1 [BHN-30] :: 24.6

Report inhibition at 1 µM for each item below.
1. FC(F)(F)Oc1ccc(-c2ccc3nnc(C(F)(F)F)n3c2)cc1-c1nnco1 [BHN-153]
2. FC(F)(F)Oc1ccc(-c2ccc3nnc(C(F)(F)OCc4cc(-c5ccccc5)on4)n3c2)cc1 [BHN-298]

Result:
17.2
70.3

# map each compound to its inhibition at 1 µM
1. Cc1nn(-c2ccccc2)nc1COC(F)(F)c1nnc2ccc(-c3ccc(OC(F)(F)F)cc3)cn12 [BHN-300]
2. N#CCOCC(F)(F)c1nnc2ccc(-c3ccc(OC(F)(F)F)cc3)cn12 [BHN-156]
3. OC(C1CC1)C(F)(F)c1nnc2ccc(-c3ccc(OC(F)(F)F)cc3)cn12 (stereo not shown) [BHN-166]
4. FC(F)(F)Oc1ccc(-c2ccc3nnc(-c4ccc(OC(F)(F)F)cc4)n3n2)cc1 [BHN-118]
5. FC(F)(F)COc1ccc(-c2ccc3nnc(C(F)(F)F)n3n2)cn1 [BHN-221]
6. N#Cc1ccc(C(F)(F)Oc2ccc(-c3ccc4nnc(C(F)(F)F)n4c3)cc2)cc1 [BHN-280]

Result:
1: 63; 2: 22.3; 3: 29.5; 4: 46.3; 5: 55; 6: 63.7

Problem: Look up inhibition at 1 µM with wild-type human cardiac sodium channel, hNav1.5 (Homo sapiens, UniProt Q14524) for this compound: CNC(=O)c1cccc(-c2nnc3ccc(-c4ccc(OC(F)(F)F)cc4)cn23)c1 [BHN-99]
Result: 19.6
